Values from paper PMC5898707

# Tested on: U-251
# TEST_PROTOCOL: Cytotoxicity MTS assay, 72 h
# Assay type: cell-based, human
# CONDITION_LABEL: Homo sapiens; U-251; 72 h; MTS
# IC50 listing for each entry below

MOLECULE | UOM | IC50
Nc1cccnc1C=NNC(=S)N1CCN(c2ccc(C(F)(F)F)cn2)CC1 | nM | 277
Nc1cccnc1C=NNC(=S)N1CCN(c2ccc(F)cc2)CC1 | nM | 887
NC(=S)NN=Cc1ncccc1N | nM | 1480

----------
# pIC50 listing for each entry below
# System: Hs683
# TEST_PROTOCOL: Cytotoxicity MTS assay, 72 h
# Format: cell-based, human
# CONDITION_LABEL: Homo sapiens, Hs 683; Hs683; 72 h; MTS
pIC50: −log10 of the molar value.

MOLECULE | TARGET_SYSTEM | pIC50
Nc1cccnc1C=NNC(=S)N1CCN(c2ccc(F)cc2)CC1 | Hs683 | 5.60
COc1ccc(N2CCN(C(=S)NN=Cc3ncccc3N)CC2)cc1 | Hs683 | 5.35
N#Cc1ccc(N2CCN(C(=S)NN=Cc3ncccc3N)CC2)cc1 | Hs683 | 5.00
Nc1cccnc1C=NNC(=S)N1CCN(c2ccc(C(F)(F)F)cc2[N+](=O)[O-])CC1 | Hs683 | 5.72
Nc1cccnc1C=NNC(=S)N1CCN(c2ncc(C(F)(F)F)cc2Cl)CC1 | Hs683 | 6.71
Nc1cccnc1C=NNC(=S)N1CCN(c2ccc(C(F)(F)F)cn2)CC1 | Hs683 | 6.07
Nc1cccnc1C=NNC(=S)N1CCN(c2ncccn2)CC1 | Hs683 | 5.55
